Target: Nuclear receptor subfamily 1 group I member 2 (Homo sapiens) (UniProt O75469)
Sequence (O75469 whole entry, looked up): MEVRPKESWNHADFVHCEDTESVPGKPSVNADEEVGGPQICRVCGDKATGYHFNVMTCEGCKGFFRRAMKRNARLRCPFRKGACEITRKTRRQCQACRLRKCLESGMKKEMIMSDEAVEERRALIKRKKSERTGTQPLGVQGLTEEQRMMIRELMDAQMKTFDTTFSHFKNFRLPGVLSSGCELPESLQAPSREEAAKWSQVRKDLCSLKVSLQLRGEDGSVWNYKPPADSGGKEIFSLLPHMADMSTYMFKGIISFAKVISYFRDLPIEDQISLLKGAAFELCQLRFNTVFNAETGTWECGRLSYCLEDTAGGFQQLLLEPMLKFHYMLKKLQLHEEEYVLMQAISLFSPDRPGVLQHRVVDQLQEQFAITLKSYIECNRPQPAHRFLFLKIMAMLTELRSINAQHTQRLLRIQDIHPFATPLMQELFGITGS
Test: Human pregnane X receptor (PXR) small molecule agonists, qHTS assay (AID 1346982); also: nearly all actives have a fitted effect of over 35% in size
Conditions: PXR-Luc HepG2, CYP3A4 luciferase reporter, 24 h; series mostly up to 92.4 µM
Records with an inconclusive call do not appear. Activity calls are given as the source filed them. Calls follow the shape of the dose curve; as a rule, active = well fitted activation curve with a large enough effect in the repeat runs; inconclusive = weak or mixed curves; inactive = no such curve, though single readings can be large or run the other way.
Outcomes you can answer with include only these: true (active), false (inactive)

{"molecule": "OC(Cc1ccccc1Cl)(Cn1cncn1)C1(Cl)CC1 (centres undefined)", "group label": "true"}

Given "ClCc1ccccc1CCl" , state the outcome it received in this test.
false

Given COc1cc(N)c(Cl)cc1C(=O)NC1CN2CCC1CC2 (centres undefined) , state the outcome it received in this test.
false

Given "C[C@]12CC[C@H]3[C@@H](CCC4=CC(=O)CC[C@@]43C)[C@@H]1CC[C@@H]2O" , state the outcome it received in this test.
true

Given "Nc1ccc(Cl)cc1C(=O)c1ccccc1" , state the outcome it received in this test.
true

Given "CC(C)(C)OO" , state the outcome it received in this test.
false

Given "O=C1C=CC(=O)c2ccccc21" , state the outcome it received in this test.
false

Given "COc1cc(C=O)cc2c1[C@H](COC(N)=O)[C@]1(OC(C)=O)ON2C[C@H]2[C@@H]1N2C(C)=O" , state the outcome it received in this test.
false

Given O=c1c(C2CC(c3ccc(-c4ccc(Br)cc4)cc3)Cc3ccccc32)c(O)sc2ccccc12 (centres undefined) , state the outcome it received in this test.
true

* * *

Target: Luciferin 4-monooxygenase (Photinus pyralis)
Test: qHTS assay to identify small molecule inhibitors of firefly luciferase (AID 1224835); also: nearly all actives have a fitted effect of over 25% in size
Settings: purified P. pyralis luciferase, luminescence inhibition; series mostly up to 115 µM
Inconclusive results are not listed. Activity calls are given as the source filed them. Calls follow the shape of the dose curve; as a rule, active = well fitted inhibition curve with a large enough effect in the repeat runs; inconclusive = weak or mixed curves; inactive = flat fitted curve, though single readings scatter.
Outcomes you can answer with include only these: class 1 = active, class 0 = inactive

Here's what some known entries look like.
{"molecule": "C[C@]12CC[C@H]3[C@@H](CCC4=CC(=O)CC[C@@]43C)[C@@H]1CC[C@@H]2O", "group label": "class 0"}
{"molecule": "COc1cc(C=O)cc2c1[C@H](COC(N)=O)[C@]1(OC(C)=O)ON2C[C@H]2[C@@H]1N2C(C)=O", "group label": "class 0"}
{"molecule": "CC(C)(C)C(O)C(Oc1ccc(-c2ccccc2)cc1)n1cncn1 (stereo not given)", "group label": "class 0"}
{"molecule": "Nc1ccccc1C(=O)OC/C=C/c1ccccc1", "group label": "class 1"}
{"molecule": "SCc1ccco1", "group label": "class 0"}

Given "CC(C)(C)OO" , state the outcome it received in this test.
class 0

Given "CC(=O)/C=C/c1ccc2c(c1)OCO2" , state the outcome it received in this test.
class 1

Given "ClC1=C(Cl)[C@]2(Cl)[C@@H]3[C@@H]4C[C@@H]([C@H]5O[C@@H]45)[C@@H]3[C@@]1(Cl)C2(Cl)Cl" , state the outcome it received in this test.
class 0

Given O=C1c2ccccc2C(=O)C1C(=O)C(c1ccccc1)c1ccc(Cl)cc1 (stereo not given) , state the outcome it received in this test.
class 0

Given "CCCN(CCC)c1c([N+](=O)[O-])cc(S(N)(=O)=O)cc1[N+](=O)[O-]" , state the outcome it received in this test.
class 0

* * *

Assay: qHTS assay to identify aromatase inhibitors - cell viability counter screen (AID 743084);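 also: cells stimulated with testosterone during compound exposure; nearly all actives have a fitted effect of over 55% in size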
Settings: MCF-7 aro ERE viability, CellTiter-Fluor, 24 h; series mostly up to 70.3 µM
Records with an inconclusive call do not appear. Activity calls are given as the source filed them. Calls come from the whole dose curve; as a rule, active = well fitted cell-killing curve with a large enough effect in the repeat runs; inconclusive = weak or mixed curves, or effect the other way; inactive = no such curve, though single readings can be large or run the other way.
Outcomes you can answer with include only these: active, inactive

Given "CN(C)[C@@H]1C(=O)C(C(N)=O)=C(O)[C@@]2(O)C(=O)C3=C(O)c4c(O)ccc(Cl)c4[C@@](C)(O)[C@H]3C[C@@H]12" , state the outcome it received in this test.
inactive
